Hey, just so you know, these numbers are from patent US7601746B2.

Items are presented alongside their recorded pEC50.
experimental-target: human TPO receptor (hTPOR) (Homo sapiens, UniProt P40238)
Construct: expressed in transfected cells; host or cells: BaF-B03 (murine IL-3 dependent cell line)
Sequence (P40238 26-635): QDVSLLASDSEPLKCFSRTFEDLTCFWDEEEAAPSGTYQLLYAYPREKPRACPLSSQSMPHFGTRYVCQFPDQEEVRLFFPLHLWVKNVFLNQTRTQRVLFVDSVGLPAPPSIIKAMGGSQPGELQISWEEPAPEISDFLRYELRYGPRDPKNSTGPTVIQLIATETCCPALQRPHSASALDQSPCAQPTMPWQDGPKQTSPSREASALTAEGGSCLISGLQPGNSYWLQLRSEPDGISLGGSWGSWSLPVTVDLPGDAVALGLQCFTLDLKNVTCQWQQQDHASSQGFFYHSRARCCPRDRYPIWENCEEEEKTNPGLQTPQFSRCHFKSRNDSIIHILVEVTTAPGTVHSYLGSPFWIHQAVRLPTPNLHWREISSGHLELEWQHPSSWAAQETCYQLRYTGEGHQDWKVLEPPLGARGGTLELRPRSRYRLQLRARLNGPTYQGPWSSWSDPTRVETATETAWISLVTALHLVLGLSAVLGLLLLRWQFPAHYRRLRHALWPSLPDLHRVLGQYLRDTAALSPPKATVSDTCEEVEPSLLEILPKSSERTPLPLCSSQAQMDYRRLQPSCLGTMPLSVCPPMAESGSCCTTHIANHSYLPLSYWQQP
method-summary: Thrombopoietic activity: proliferation of TPO dependent BaF/hTPOR cells (WST-1, absorbance at 450 nm)
Assay type: cell-based
reported-conditions: 20 h + 4 h WST-1, ED50 = half concentration of the concentration showing the maximum thrombopoietic activity, Table 1
Give only the number. pEC50 is defined as minus log10 of concentration in molar units.

| molecule | experimental-result |
| --- | --- |
| C/C(=C\c1c(Cl)cc(C(=O)Nc2nc3c(s2)COc2c-3cccc2C(C)C)cc1Cl)C(=O)O | 7.97 |
| CC(=Cc1c(F)cc(C(=O)Nc2nc(-c3cccc(CCCOCCC4CCCC4)c3F)cs2)cc1F)C(=O)O | 8.90 |

Ask: Query pEC50 for CCCCOC(C)c1cccc(-c2csc(NC(=O)c3cc(F)c(C=C(C)C(=O)O)c(F)c3)n2)c1F (stereo not drawn)
Reply: 9.10

###

experimental-target: human TPO receptor (hTPOR) (Homo sapiens, UniProt P40238)
Construct: expressed in transfected cells; host or cells: BaF-B03 (murine IL-3 dependent cell line)
method-summary: Thrombopoietic activity: proliferation of TPO dependent BaF/hTPOR cells (WST-1, absorbance at 450 nm)
Type: cell-based
reported-conditions: 20 h + 4 h WST-1, ED50 = half concentration of the concentration showing the maximum thrombopoietic activity, Table 1
measured-parameter: EC50

Look over these answered cases.
| molecule | EC50 |
| --- | --- |
| CCCOCCCc1cccc2c1CCc1sc(NC(=O)c3cc(F)c(C=C(C)C(=O)O)c(F)c3)nc1-2 | 3 nM |
| CCCCOC(CC)c1cccc(-c2csc(NC(=O)c3cc(F)c(/C=C(\C)C(=O)O)c(F)c3)n2)c1OC (centres unmarked) | 6.3 nM |
| CCCCCCOCCC(OC)c1cccc(-c2csc(NC(=O)c3cc(Cl)c(C=C(C)C(=O)O)c(Cl)c3)n2)c1F (centres unmarked) | 1.9 nM |
| CCCCCCCOCCc1cccc(-c2csc(NC(=O)c3cc(F)c(/C=C(\OC)C(=O)O)c(F)c3)n2)c1OC | 10.1 nM |

Please find the next molecule below.
Ask: Return reported EC50 for target or system human TPO receptor (hTPOR) (Homo sapiens, UniProt P40238), item CCCCOC(CCCC)c1cccc(-c2csc(NC(=O)c3cc(F)c(C=C(C)C(=O)O)c(F)c3)n2)c1F (centres unmarked) .
Reply: 0.34 nM
